Attribution: patent US9139551B2

method.summary: physchem
experimental.parameters: water
endpoint: solubility (µg/mL)
Express the result in µg/mL but write the number alone.

compound O=C1c2c(O)cc(O)cc2O[C@H](c2cc(O)c(O)c(O)c2)[C@H]1O [PDHM] , solubility observed: 5000

---

method.summary: Acute toxicity, intraperitoneal administration (mortality, LD50, body weight, dietary)
Assay type: in vivo, mice
experimental.parameters: both sexes, mouse, in vivo, ip, mice, i.p., observed 7 days; read-out: 95% confidence limit of LD50
endpoint: LD50 at 7 days

compound O=C1c2c(O)cc(O)cc2O[C@H](c2cc(O)c(O)c(O)c2)[C@H]1O [PDHM] , LD50 at 7 days observed: 743 to 755 mg/kg

---

method.summary: Acute toxicity, intragastric administration (maximum tolerated dose)
experimental.parameters: both, mouse, in vivo, po, 1250 mg/kg
endpoint: MTD at 7 days (mg/kg)
Express the result in mg/kg but write the number alone.

compound O=C1c2c(O)cc(O)cc2O[C@H](c2cc(O)c(O)c(O)c2)[C@H]1O , MTD at 7 days observed: 3750

---

method.summary: Solubility in water
endpoint: solubility

compound O=C1c2c(O)cc(O)cc2O[C@H](c2cc(O)c(O)c(O)c2)[C@H]1O [DHM, dihydromyricetin, reference compound] , solubility observed: ≤ 264 µg/mL

---

method.summary: Acute toxicity, intraperitoneal administration (mortality, LD50, body weight, dietary)
Type: in vivo, mice
experimental.parameters: both sexes, mouse, in vivo, ip, mice, i.p., observed 7 days; read-out: LD50
endpoint: LD50 at 7 days (mg/kg)
Express the result in mg/kg but write the number alone.

molecule O=C1c2c(O)cc(O)cc2O[C@H](c2cc(O)c(O)c(O)c2)[C@H]1O , LD50 at 7 days observed: 902
